system: HL-60/MX2; experiment: Cell growth inhibition assay (resazurin, 48 h); settings: Homo sapiens, HL60/MX2, 48 h, HL-60/MX2, 48 h
Documented EC50 across a set of molecules
Record the value in µM, omitting the unit from your answer.

Observe how each entry below is paired with its result.
Molecule: C[C@@]12OC(=O)[C@]1([C@@H](O)[C@@H]1C=CCCC1)NC(=O)[C@@H]2CCCl [Formula II-16, Salinosporamide A]
EC50 (µM): 0.028

Molecule: C[C@@]12OC(=O)[C@]1([C@@H](O)C1CCCCC1)NC(=O)[C@@H]2CCCl [Formula II-2]
EC50 (µM): 0.142

Now look at this one.
Given the entry O=C1c2c(O)ccc(O)c2C(=O)c2c(NCCNCCO)ccc(NCCNCCO)c21 [Mitoxantrone] , what EC50 was observed with HL-60/MX2?
1.41

* * *

Documented EC50 across a set of compounds
test system: NCI-H292; experiment: Cell growth inhibition assay (resazurin, 48 h); type: cell-based, human; settings: Homo sapiens, NCI-H292, 48 h; read-out: EC50
Record the value in nM, omitting the unit from your answer.

Compound: C[C@@]12OC(=O)[C@]1([C@@H](O)C1CCCCC1)NC(=O)[C@@H]2CCBr [Formula II-4]
System Tested: NCI-H292
EC50 [nM]: 192

Now look at this one.
Given the entry C[C@@]12OC(=O)[C@]1([C@@H](O)C1CCCCC1)NC(=O)[C@@H]2CCCl [Formula II-2] , what EC50 was observed with NCI-H292?
322
